We begin with a simple list: items and their reported Percent Effect.
tested-target: Arginase-2, mitochondrial (Homo sapiens) (UniProt P78540)
assay: in vitro enzyme assay to detect the production of urea directly proportional to the activity of Arginase II; further: in the data most compounds retested in dose-response had high values
Type: functional
Set-up: scale not given: direction of the effect not stated beside the values
run-conditions: 33.3 µM
experimental-readout: Percent Effect (%)

1. Cc1occc1C(=O)N1CCOCC2(CCN(Cc3nccs3)C2)C1 (stereo unspecified) : 5.52
2. Cc1ccc(N2CCCC(NCc3ccc(C)o3)C2)nn1 (stereo unspecified) : -1.5
3. c1cnnc(N2CCCC2CNCc2nc3ccccc3o2)c1 (stereo unspecified) : -3.19
4. CCc1[nH]ncc1C(=O)N1CCCN(Cc2cnn(C)c2)CC1 : 5.68
5. Cc1nccn1CC1CCCN1S(=O)(=O)Cc1ccon1 (stereo unspecified) : -6.84
6. Cn1cc(N2CCC3(CCN(Cc4nccs4)C3)C2=O)cn1 (stereo unspecified) : 0.319
7. CCn1ncc2c1CCCC2NCc1ccc(OC)c(C)c1 (stereo unspecified) : -3.42
8. Cc1cnc(N2C[C@H]3C[C@H](C(=O)N(C)C)[C@@H](C2)O3)nc1 : -46.1
9. CCn1c(C(=O)N2CCN(C(=O)NC(C)C)CC2)cc2ccccc21 : 0.356
10. CCc1ccc(NC(=O)c2cnc(N3CCN(C)CC3)nc2C)cc1 : -0.645
11. c1cnn(CCNCc2nnc(C3CC3)o2)c1 : -2.66

* * *

tested-target: Sialic acid-binding Ig-like lectin 9 (Homo sapiens) (UniProt Q9Y336)
Sequence (Q9Y336 whole entry): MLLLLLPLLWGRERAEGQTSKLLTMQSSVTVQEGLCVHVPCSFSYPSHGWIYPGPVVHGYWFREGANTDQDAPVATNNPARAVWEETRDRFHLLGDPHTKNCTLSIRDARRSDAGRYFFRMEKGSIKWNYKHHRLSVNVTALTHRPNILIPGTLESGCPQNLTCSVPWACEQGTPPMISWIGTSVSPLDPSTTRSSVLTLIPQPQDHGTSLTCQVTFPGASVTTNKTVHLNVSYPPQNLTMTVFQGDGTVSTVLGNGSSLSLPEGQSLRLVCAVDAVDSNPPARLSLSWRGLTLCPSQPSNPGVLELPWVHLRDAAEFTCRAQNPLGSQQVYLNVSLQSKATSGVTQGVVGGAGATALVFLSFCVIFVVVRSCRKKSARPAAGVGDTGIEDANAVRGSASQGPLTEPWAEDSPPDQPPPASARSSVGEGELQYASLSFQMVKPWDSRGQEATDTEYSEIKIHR
assay: Hs-Siglec9 ALPHAscreen SOP 20170721
Parameters: scale not given: direction of the effect not stated beside the values
run-conditions: 10 µM
We begin with a simple list: items and their reported Percent Effect.
experimental-readout: Percent Effect (%)

1. Cc1nc(C2CCCN2Cc2nc(C)c(C)o2)no1 (stereo unspecified) : -1.49
2. O=C(c1cnn(-c2ccccc2F)c1)N1CCN(CCO)CC1 : 3.26
3. CN(c1cccnn1)C1CCN(C(=O)c2ccc3c(c2)COC3)CC1 : 5.38
4. Clc1ccc(OCCN2CCN(CCn3cncn3)CC2)cc1 : 26.8
5. Cc1cc(NC(=O)NCc2ccccc2OC(F)F)n(C)n1 : -4.29
6. O=C(c1ccc(F)c(Cl)c1)N1C[C@@H]2CC[C@H](C1)N(Cc1ccccc1)C2 : 19.2

* * *

tested-target: Tyrosyl-tRNA synthetase, putative (Trypanosoma cruzi (strain CL Brener)) (UniProt Q4DSP6)
assay: Trypanosoma cruzi tyrosyl tRNA synthetase (TcYRS) _High Tyrosine SOP; further: in the data most compounds retested in dose-response had high values
Format: functional
Parameters: scale not given: direction of the effect not stated beside the values
run-conditions: 30 µM
experimental-readout: Percent Effect (%)

1. Cc1ccc(NC2CCN(C(=O)c3ccsc3)CC2)nn1 : 6.8
2. COc1cc(CN(C)C(=O)NCCC2CCCO2)ccc1SC (centres undefined) : -13.9
3. Cn1nnc2c1C(COCC1CC1)CN(C(=O)Cc1ccsc1)C2 (centres undefined) : -1.06
4. Cc1cc(CN(C)C2CCCN(c3cccnn3)C2)on1 (centres undefined) : 11.5

* * *

tested-target: Arginase-2, mitochondrial (Homo sapiens)
Sequence (whole entry): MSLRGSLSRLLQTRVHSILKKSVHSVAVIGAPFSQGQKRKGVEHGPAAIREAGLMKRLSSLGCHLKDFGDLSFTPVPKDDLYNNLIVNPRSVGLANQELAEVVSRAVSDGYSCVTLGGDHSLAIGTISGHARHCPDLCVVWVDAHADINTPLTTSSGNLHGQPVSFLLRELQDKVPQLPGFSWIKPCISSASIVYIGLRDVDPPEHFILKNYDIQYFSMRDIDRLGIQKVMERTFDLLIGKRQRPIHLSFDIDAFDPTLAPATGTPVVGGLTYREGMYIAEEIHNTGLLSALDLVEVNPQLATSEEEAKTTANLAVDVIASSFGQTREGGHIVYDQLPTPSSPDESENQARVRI
assay: in vitro enzyme assay to detect the production of urea directly proportional to the activity of Arginase II; further: in the data most compounds retested in dose-response had high values
Format: functional
Parameters: scale not given: direction of the effect not stated beside the values
run-conditions: 33.3 µM
experimental-readout: Percent Effect (%)

1. CCOc1ccc(NC(=O)NCc2csc(NC)n2)cc1C : 0.924
2. Cc1oncc1C(=O)N1CCC2(CCN(Cc3ccccn3)C2=O)C1 (stereo not given) : -3.19
3. Cc1cnn(CC(C)NCc2nc(-c3ccco3)no2)c1 (stereo not given) : 9.27
4. CC(C)NC(=O)c1nnn(-c2cccc(C(F)(F)F)c2)c1C1CC1 : 15.4
5. Cc1cc(C)cc(OCCC(=O)N2CCOCC2c2ncon2)c1 (stereo not given) : -1.29
6. O=C(CC1CC1)NCc1cn2c(n1)CN(CC1CC1)CC2 : 1.63
7. Cc1nnc2n1CCN(Cc1csc(CC(=O)N(C)C)n1)C2 : -2.03
8. Cc1nn(C)c(C)c1C1COCCN1c1ncnc2sccc12 (stereo not given) : -2.08
9. COc1ccc(CNC(C)c2cccc(Cl)c2)c(OC)c1OC (stereo not given) : 4.69
10. CC(C)C(=O)N1CCN(C(=O)c2cc(C(C)C)on2)[C@H]2CS(=O)(=O)C[C@H]21 : 7.06

* * *

tested-target: Tyrosyl-tRNA synthetase, putative (Trypanosoma cruzi (strain CL Brener)) (UniProt Q4DSP6)
Sequence (whole entry): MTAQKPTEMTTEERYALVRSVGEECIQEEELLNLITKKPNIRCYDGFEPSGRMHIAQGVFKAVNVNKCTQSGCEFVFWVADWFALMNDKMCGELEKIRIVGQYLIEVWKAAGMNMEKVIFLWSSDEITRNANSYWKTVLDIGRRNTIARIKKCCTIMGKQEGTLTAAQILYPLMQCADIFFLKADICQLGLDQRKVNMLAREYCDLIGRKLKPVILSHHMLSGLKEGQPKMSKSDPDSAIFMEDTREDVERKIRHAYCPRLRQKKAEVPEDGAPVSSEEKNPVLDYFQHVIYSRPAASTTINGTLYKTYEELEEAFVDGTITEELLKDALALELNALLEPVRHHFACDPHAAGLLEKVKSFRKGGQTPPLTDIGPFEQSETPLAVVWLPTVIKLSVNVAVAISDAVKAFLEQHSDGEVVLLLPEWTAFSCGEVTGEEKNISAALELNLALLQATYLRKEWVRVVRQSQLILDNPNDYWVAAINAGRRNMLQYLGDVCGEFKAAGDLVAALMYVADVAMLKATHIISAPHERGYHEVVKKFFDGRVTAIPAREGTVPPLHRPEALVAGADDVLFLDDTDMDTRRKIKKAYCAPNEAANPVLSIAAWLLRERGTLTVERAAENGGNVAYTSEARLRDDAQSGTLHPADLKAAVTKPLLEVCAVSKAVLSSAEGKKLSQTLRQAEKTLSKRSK
assay: Trypanosoma cruzi tyrosyl tRNA synthetase (TcYRS) SOP
Type: functional
Design: scale not given: direction of the effect not stated beside the values
run-conditions: 30 µM
We begin with a simple list: items and their reported Percent Effect.
experimental-readout: Percent Effect (%)

1) CCC(C)NC(=O)Nc1ccc(CN2CCOC2=O)cc1 (stereo not given) : -5.13
2) Cc1nc(CN2CCCN(C(=O)C3(C#N)CCCCC3)CC2)cs1 : 13.9
3) COCC1c2c(cnn2CC2CC2)CCN1Cc1nccs1 (stereo not given) : 20
4) Cc1ccc(CNC(=O)NCc2csc(C)n2)cn1 : 16.5
5) CSc1ccc(NC(=O)Nc2ccc3c(c2)N(S(C)(=O)=O)CC3)cc1 : -14.1

* * *

tested-target: Ubiquitin-activating enzyme e1, putative (Leishmania donovani (strain BPK282A1)) (UniProt E9BSI1)
Sequence (E9BSI1 as listed by the source): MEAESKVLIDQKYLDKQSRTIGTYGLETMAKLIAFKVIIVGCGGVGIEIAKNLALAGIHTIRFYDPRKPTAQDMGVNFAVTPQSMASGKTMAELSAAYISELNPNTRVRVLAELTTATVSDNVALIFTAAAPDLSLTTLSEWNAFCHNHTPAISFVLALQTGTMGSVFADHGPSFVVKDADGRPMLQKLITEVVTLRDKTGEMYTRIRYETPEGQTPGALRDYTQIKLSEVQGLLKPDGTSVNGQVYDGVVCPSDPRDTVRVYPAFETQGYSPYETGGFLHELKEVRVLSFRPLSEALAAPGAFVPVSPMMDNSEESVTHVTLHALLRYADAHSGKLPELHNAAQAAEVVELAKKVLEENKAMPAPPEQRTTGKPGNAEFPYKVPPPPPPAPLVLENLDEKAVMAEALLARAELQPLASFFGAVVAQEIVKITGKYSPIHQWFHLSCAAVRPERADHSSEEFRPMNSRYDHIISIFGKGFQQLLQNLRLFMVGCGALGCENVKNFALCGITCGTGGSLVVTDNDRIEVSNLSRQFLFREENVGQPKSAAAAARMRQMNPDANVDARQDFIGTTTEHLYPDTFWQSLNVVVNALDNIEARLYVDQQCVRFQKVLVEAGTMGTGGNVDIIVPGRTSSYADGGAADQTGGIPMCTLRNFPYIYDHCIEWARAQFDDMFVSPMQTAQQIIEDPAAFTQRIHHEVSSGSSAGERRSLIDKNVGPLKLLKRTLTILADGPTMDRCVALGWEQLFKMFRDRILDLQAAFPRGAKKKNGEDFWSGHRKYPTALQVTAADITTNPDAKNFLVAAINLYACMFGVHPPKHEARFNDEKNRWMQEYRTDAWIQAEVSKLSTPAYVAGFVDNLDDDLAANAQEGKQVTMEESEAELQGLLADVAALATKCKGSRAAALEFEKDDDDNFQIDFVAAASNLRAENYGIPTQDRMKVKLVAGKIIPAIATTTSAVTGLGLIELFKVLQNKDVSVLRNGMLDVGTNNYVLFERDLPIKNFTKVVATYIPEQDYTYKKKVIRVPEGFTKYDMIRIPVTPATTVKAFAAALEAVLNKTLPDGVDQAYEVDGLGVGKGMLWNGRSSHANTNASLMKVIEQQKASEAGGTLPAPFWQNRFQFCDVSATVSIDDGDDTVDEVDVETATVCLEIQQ
assay: Leishmania donovani Ubiquitin Activating Enzyme (LdE1)
Assay type: functional
Design: scale not given: direction of the effect not stated beside the values
run-conditions: 30 µM
Measured potencies and affinities stand elsewhere.
experimental-readout: Percent Effect (%)

1) COc1c(C2CCCN2Cc2csc(C(C)C)n2)c(C)nn1C (stereo not drawn) : 18.2
2) CN(C)C(=O)N1CCN(Cc2cnn(C)c2)CC2(CNC(=O)C2)C1 (stereo not drawn) : 0
3) CC(C)CN1CCC(C(=O)Nc2cc(C(F)(F)F)c[nH]c2=O)CC1 : 10.4

* * *

tested-target: Proteasome subunit beta (Trypanosoma cruzi) (UniProt O96673)
Sequence (O96673 as listed by the source): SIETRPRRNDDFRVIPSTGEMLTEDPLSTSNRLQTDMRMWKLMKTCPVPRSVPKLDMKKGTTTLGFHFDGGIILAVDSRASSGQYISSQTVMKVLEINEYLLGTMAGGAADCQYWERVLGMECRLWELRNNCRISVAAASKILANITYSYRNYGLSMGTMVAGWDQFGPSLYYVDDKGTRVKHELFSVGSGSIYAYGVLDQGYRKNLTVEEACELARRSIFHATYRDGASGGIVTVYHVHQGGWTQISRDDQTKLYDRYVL
assay: Trypanosoma cruzi proteasome chymotrypsin-like activity (TcProtChymo) assay. Further: in the data most compounds retested in dose-response had high values.
Type: functional
Design: scale not given: direction of the effect not stated beside the values
run-conditions: 9.37 µM
We begin with a simple list: items and their reported Percent Effect.
experimental-readout: Percent Effect

1. CCn1c(N)nc2cc(C(=O)NCc3ccccc3Cl)cnc21 : 14.9%
2. CCn1nc2c(cc1=O)CN(Cc1nc3ccccc3c(=O)[nH]1)CC2 : 18.3%
3. CCc1ccc(NC(=O)N2C[C@H]3C[C@H](C(=O)NC)[C@@H](C2)O3)cc1 : 5.4%
4. Cn1cccc1CN1CCC2(CCCN(C(=O)Cc3cccnc3)C2)C1 (stereo unspecified) : 1.39%
5. Cc1ccc(CNC(=O)CN2CCN(CC(O)c3ccco3)CC2)cc1 (stereo unspecified) : 9.4%
6. CCc1noc(CN2CCCC2c2noc(C3CC3)n2)n1 (stereo unspecified) : 12.8%
7. CN(C)C(=O)N1C[C@@H]2CCCO[C@@H]2[C@H](N(C)Cc2ccco2)C1 : 8.99%
8. c1cnn(CC2CCCCN2c2ncnc3sccc23)c1 (stereo unspecified) : 6.45%
9. O=C(NCCCOCC1CC1)Nc1cccnc1N1CCOCC1 : 21.1%
10. COCC(=O)NC1CC2(CCN(Cc3ccco3)CC2)c2ccccc21 (stereo unspecified) : 24.2%
11. COCC(=O)N1CCC(c2noc3nc(C)cc(C(F)(F)F)c23)CC1 : 13.9%
12. COc1ccc(OC)c(NC(=O)c2nc3ccccc3n(C)c2=O)c1 : 9.22%
13. O=C(NCCNc1ncccn1)c1ccc(-c2ccco2)[nH]c1=O : 15.9%
14. O=C(NC1CC1)[C@@H]1CCO[C@@H]2CCN(Cc3ccsc3)C[C@H]21 : 17.5%
15. CCS(=O)(=O)NC[C@]12COC[C@H]1CN(Cc1cccc(OC)c1)C2 : 7.93%
16. Cc1ccccc1CSc1nc(N)cc(N2CC[C@@H](O)C2)n1 : 11.4%

From: ChEMBL document CHEMBL3988442
